// data source = paper PMC10459693

Assay: Biodistribution in SCID mice bearing AsPC-1 xenografts
Assay type: in vivo
Settings: male, mouse, AsPC-1 tumor, iv, total radioactivity, 24 h pi, Entresto+Lis, read-out: uptake in AsPC-1 Tumor
Peptide text beside a SMILES is read from it. * marks the point of attachment. Palmitoyl = CCCCCCCCCCCCCCCC(=O)*; X1 = NCCNCC(CNCCN)C(=O)*
Metric Name: tissue uptake at 24 h

*Q* Returns the measured tissue uptake at 24 h for the input compound. Input: CCCCCCCCCCCCCCCC(=O)NCCCC[C@H](NC(=O)C(CNCCN)CNCCN)C(=O)N[C@@H](CCCNC(=N)N)C(=O)N[C@@H](CCCNC(=N)N)C(=O)N1CCC[C@H]1C(=O)N[C@@H](Cc1ccc(O)cc1)C(=O)N[C@H](C(=O)N[C@@H](CC(C)C)C(=O)O)[C@@H](C)CC [[^99mTc]Tc-DT9, metal not drawn] (X1-K(Palmitoyl)RRPYIL-OH)
*A* 2.84 %ID/g
